# Test system: SNU-C4 xenografted nude mice
# Protocol: Biodistribution study in SNU-C4 xenografted nude mice after intravenous injection
# Assay type: in vivo, mouse
# Assay setup: stomach, 2 hr after intravenous injection
Test readout: % ID/g Stomach (% ID/g)
Numbers only; they are read as % ID/g.

Known results for compounds:
- Compound: "NC(CNC(=O)CN1CCN(CC(=O)[O-])CCN(CC(=O)[O-])CCN(CC(=O)[O-])CC1)C(=O)O.[68Ga+3] (centres unmarked) [^68Ga-DOTA-ala]"
  % ID/g Stomach, % ID/g: 0.21
- Compound: "NC(CNC(=O)CN1CCN(CC(=O)[O-])CCN(CC(=O)[O-])CC1)C(=O)[O-].[68Ga+3] (centres unmarked) [^68Ga-NOTA-ala]"
  % ID/g Stomach, % ID/g: 0.18

The recorded % ID/g Stomach for O=C([O-])CN1CCNCCN(CC(=O)[O-])CCNCC1.[68Ga+3] [^68Ga-DO2A, reference compound] is 0.18

The recorded % ID/g Stomach for N[C@@H](CN1CCN(CC(=O)[O-])CCN(CC(=O)[O-])CCN(CC(=O)[O-])CC1)C(=O)O.[68Ga+3] (stereo in doubt) [^68Ga-DO3A-ala] is 11.42

---

# System: SNU-C4 xenografted nude mice
# Protocol: Biodistribution study in SNU-C4 xenografted nude mice after intravenous injection
# Format: in vivo, mouse
# Assay setup: blood, 1 hr after intravenous injection
Catalogue of % ID/g Blood readings, one per entry.
Report the figure along with its unit, number first.

Known results for molecules:
- Molecule: "NC(CN1CCN(CC(=O)[O-])CCNCCN(CC(=O)[O-])CC1)C(=O)[O-].[68Ga+3] (centres unmarked) [^68Ga-DO2A-ala]"
  % ID/g Blood: "3.12 ± 0.89 % ID/g"
- Molecule: "O=C([O-])CN1CCN(CC(=O)[O-])CCN(CC(=O)[O-])CC1.[68Ga+3] [^68Ga-NOTA, reference compound]"
  % ID/g Blood: "0.41 ± 0.24 % ID/g"
- Molecule: "N[C@@H](CN1CCN(CC(=O)[O-])CCN(CC(=O)[O-])CCN(CC(=O)[O-])CC1)C(=O)O.[68Ga+3] (stereo in doubt) [^68Ga-DO3A-ala]"
  % ID/g Blood: "7.97 ± 1.29 % ID/g"
- Molecule: "NC(CNC(=O)CN1CCN(CC(=O)[O-])CCN(CC(=O)[O-])CC1)C(=O)[O-].[68Ga+3] (centres unmarked) [^68Ga-NOTA-ala]"
  % ID/g Blood: "0.73 ± 0.05 % ID/g"
- Molecule: "O=C([O-])CN1CCNCCN(CC(=O)[O-])CCN(CC(=O)[O-])CC1.[68Ga+3] [^68Ga-DO3A, reference compound]"
  % ID/g Blood: "1.03 ± 0.34 % ID/g"
- Molecule: "O=C([O-])CN1CCN(CC(=O)[O-])CCN(CC(=O)O)CCN(CC(=O)[O-])CC1.[68Ga+3] [^68Ga-DOTA, reference compound]"
  % ID/g Blood: "0.90 ± 0.19 % ID/g"

The recorded % ID/g Blood for O=C([O-])CN1CCNCCN(CC(=O)[O-])CCNCC1.[68Ga+3] [^68Ga-DO2A, reference compound] is 1.12 ± 0.27 % ID/g

The recorded % ID/g Blood for NC(CNC(=O)CN1CCN(CC(=O)[O-])CCN(CC(=O)[O-])CCN(CC(=O)[O-])CC1)C(=O)O.[68Ga+3] (centres unmarked) [^68Ga-DOTA-ala] is 1.30 ± 0.28 % ID/g

---

# Test system: SNU-C4 xenografted nude mice
# Protocol: Biodistribution study in SNU-C4 xenografted nude mice after intravenous injection
# Format: in vivo, mouse
# Assay setup: intestine, 1 hr after intravenous injection
Test readout: % ID/g Intestine (% ID/g)
Numbers only; they are read as % ID/g.

Known results for compounds:
- Compound: "NC(CNC(=O)CN1CCN(CC(=O)[O-])CCN(CC(=O)[O-])CCN(CC(=O)[O-])CC1)C(=O)O.[68Ga+3] (centres unmarked) [^68Ga-DOTA-ala]"
  System: "SNU-C4 xenografted nude mice"
  % ID/g Intestine [% ID/g]: 0.52
- Compound: "O=C([O-])CN1CCN(CC(=O)[O-])CCN(CC(=O)[O-])CC1.[68Ga+3] [^68Ga-NOTA, reference compound]"
  System: "SNU-C4 xenografted nude mice"
  % ID/g Intestine [% ID/g]: 0.33
- Compound: "O=C([O-])CN1CCN(CC(=O)[O-])CCN(CC(=O)O)CCN(CC(=O)[O-])CC1.[68Ga+3] [^68Ga-DOTA, reference compound]"
  System: "SNU-C4 xenografted nude mice"
  % ID/g Intestine [% ID/g]: 0.36
- Compound: "NC(CN1CCN(CC(=O)[O-])CCNCCN(CC(=O)[O-])CC1)C(=O)[O-].[68Ga+3] (centres unmarked) [^68Ga-DO2A-ala]"
  System: "SNU-C4 xenografted nude mice"
  % ID/g Intestine [% ID/g]: 3.91
- Compound: "O=C([O-])CN1CCNCCN(CC(=O)[O-])CCN(CC(=O)[O-])CC1.[68Ga+3] [^68Ga-DO3A, reference compound]"
  System: "SNU-C4 xenografted nude mice"
  % ID/g Intestine [% ID/g]: 0.64

The recorded % ID/g Intestine for N[C@@H](CN1CCN(CC(=O)[O-])CCN(CC(=O)[O-])CCN(CC(=O)[O-])CC1)C(=O)O.[68Ga+3] (stereo in doubt) [^68Ga-DO3A-ala] is 1.87

The recorded % ID/g Intestine for NC(CNC(=O)CN1CCN(CC(=O)[O-])CCN(CC(=O)[O-])CC1)C(=O)[O-].[68Ga+3] (centres unmarked) [^68Ga-NOTA-ala] is 0.44

The recorded % ID/g Intestine for O=C([O-])CN1CCNCCN(CC(=O)[O-])CCNCC1.[68Ga+3] [^68Ga-DO2A, reference compound] is 0.68

---

# Tested on: SNU-C4 xenografted nude mice
# Protocol: Biodistribution study in SNU-C4 xenografted nude mice after intravenous injection
# Format: in vivo, mouse
# Assay setup: intestine, 30 min after intravenous injection
Catalogue of % ID/g Intestine readings, one per entry.

The recorded % ID/g Intestine for NC(CN1CCN(CC(=O)[O-])CCNCCN(CC(=O)[O-])CC1)C(=O)[O-].[68Ga+3] (centres unmarked) [^68Ga-DO2A-ala] is 1.40 ± 0.38 % ID/g

The recorded % ID/g Intestine for NC(CNC(=O)CN1CCN(CC(=O)[O-])CCN(CC(=O)[O-])CCN(CC(=O)[O-])CC1)C(=O)O.[68Ga+3] (centres unmarked) [^68Ga-DOTA-ala] is 0.74 ± 0.11 % ID/g

The recorded % ID/g Intestine for O=C([O-])CN1CCN(CC(=O)[O-])CCN(CC(=O)O)CCN(CC(=O)[O-])CC1.[68Ga+3] [^68Ga-DOTA, reference compound] is 0.68 ± 0.08 % ID/g

The recorded % ID/g Intestine for NC(CNC(=O)CN1CCN(CC(=O)[O-])CCN(CC(=O)[O-])CC1)C(=O)[O-].[68Ga+3] (centres unmarked) [^68Ga-NOTA-ala] is 0.77 ± 0.19 % ID/g

---

# Tested on: SNU-C4 xenografted nude mice
# Protocol: Biodistribution study in SNU-C4 xenografted nude mice after intravenous injection
# Assay type: in vivo, mouse
# Assay setup: bone, 30 min after intravenous injection
Each record is given Y if its reported % ID/g Bone is strictly below 1 % ID/g. Records at or above 1 % ID/g are given N.

- Molecule: "NC(CNC(=O)CN1CCN(CC(=O)[O-])CCN(CC(=O)[O-])CCN(CC(=O)[O-])CC1)C(=O)O.[68Ga+3] (centres unmarked) [^68Ga-DOTA-ala]"
  Category: "N"

query: Does the reported % ID/g Bone of N[C@@H](CN1CCN(CC(=O)[O-])CCN(CC(=O)[O-])CCN(CC(=O)[O-])CC1)C(=O)O.[68Ga+3] (stereo in doubt) [^68Ga-DO3A-ala] stay below 1 % ID/g?
result: N

query: Does the reported % ID/g Bone of NC(CN1CCN(CC(=O)[O-])CCNCCN(CC(=O)[O-])CC1)C(=O)[O-].[68Ga+3] (centres unmarked) [^68Ga-DO2A-ala] stay below 1 % ID/g?
result: N

query: Does the reported % ID/g Bone of O=C([O-])CN1CCNCCN(CC(=O)[O-])CCN(CC(=O)[O-])CC1.[68Ga+3] [^68Ga-DO3A, reference compound] stay below 1 % ID/g?
result: Y

query: Does the reported % ID/g Bone of O=C([O-])CN1CCN(CC(=O)[O-])CCN(CC(=O)[O-])CC1.[68Ga+3] [^68Ga-NOTA, reference compound] stay below 1 % ID/g?
result: Y
